system: Hs-578T; assay: NCI tumour cell line growth inhibition, 48 h
The source made the active and inactive calls. Rule as the data show it: active = GI50 up to about 1.1 µM and inactive = higher.
Outcome field: choose from T (active), F (inactive)

ClC1(c2ccccc2)c2ccc(Br)cc2-c2cc(Br)ccc21: F
C=C(CC(=O)Nc1ccc(C(=O)OC)o1)C(=O)OC: F
CCCCCC(C)SC1(C(=O)OC)CC(OC(C)=O)C(NC(C)=O)C([C@H](OC(C)=O)[C@@H](COC(C)=O)OC(C)=O)O1 (stereo not given in full): F
C=CC1ON(Cc2ccccc2)CCc2cc(OC)c(OC)cc21 (stereo not given): F

stdin: Hi, sorry to bother you, what did the test record for CC1CC[P+](c2ccccc2)(c2ccccc2)c2c1ccc1ccccc21 (stereo not given) ?
stdout: F

stdin: Hi, sorry to bother you, what did the test record for `O=C1/C(=C\c2cccs2)Oc2ccccc21` ?
stdout: F

----------
system: U-251; assay: NCI tumour cell line growth inhibition, 48 h
Calls of active or inactive are those of the source. Rule as the data show it: active = GI50 up to about 1.1 µM and inactive = higher.
Would you mind telling me the reported GI50 of each entry?

O=S(=O)(c1ccccc1)n1cnc(CCc2ccccc2)n1: > 100 µM (inactive)

Look up GI50 for the entries below, preserving their order.
1. C=C(C(=O)OC)[C@H]1CC/C(C)=C/CC/C(C)=C/CC[C@@]2(C)O[C@@H]2C1
2. COc1ccc2c(ccc3c(C(=O)NCCCN(C)CCCNC(=O)c4cn(C)c5c4ccc4cc(OC)ccc45)cn(C)c32)c1
3. CN(C)CCC(/C=C/c1ccccc1)=N\Nc1ccc(Cl)cc1
4. c1ccc(CCc2cccnc2)nc1
5. COc1cc(/C=C2\CC/C(=C\c3cc(OC)c(O)c(OC)c3)C2=O)cc(OC)c1O

stdout:
20.1 µM (inactive)
1.92 µM (inactive)
1.84 µM (inactive)
> 100 µM (inactive)
2.06 µM (inactive)

Look up GI50 for the entries below, preserving their order.
1. COCc1cc2c(cc1/C(=C/[N+](=O)[O-])CS(=O)(=O)c1ccccc1)OCO2
2. N#CCN1c2ccccc2CCC1Cl (stereo unspecified)
3. COc1cc(/C=C/c2ccc(OC)c(OC)c2OC)cc(OC)c1OC
4. CN(C)CCCNc1ccnc2c([N+](=O)[O-])cccc12
5. N/N=c1\c2ccccc2c2cc3c(cc12)/c(=N/N)c1ccccc13

stdout:
> 100 µM (inactive)
> 10 µM (inactive)
16.8 µM (inactive)
30.2 µM (inactive)
> 100 µM (inactive)

----------
system: TK-10; test: NCI tumour cell line growth inhibition, 48 h
Activity calls are given as the source filed them. No stated cut-off is given here; in the data, active = GI50 up to about 1.1 µM and inactive = higher.
Would you mind telling me the reported GI50 of each entry?

CN(C)C=O.O=C(Nc1nnn[nH]1)c1nc(O)cc(-c2ccccc2)n1: > 100 µM (inactive)
CCCCCCCCCc1nn2c(Cc3ccccc3)nnc2s1: 24.6 µM (inactive)
C=C(C(=O)OC)[C@H]1CC/C(C)=C/CC/C(C)=C/CC[C@@]2(C)O[C@@H]2C1: 21.5 µM (inactive)
Cc1cn([C@@H]2C[C@](C)(CO)N(C)O2)c(=O)[nH]c1=O: > 100 µM (inactive)
CCCCOC(=O)NC(=O)c1cn(C2CCCCC2)c(=O)[nH]c1=O: 46.9 µM (inactive)

stdin: Could you tell me which GI50 is on file for `O=C(CON1C(=O)c2ccccc2C1=O)c1ccccc1` ?
stdout: 20.7 µM (inactive)

----------
tested on: A549; test: NCI tumour cell line growth inhibition, 48 h
Activity calls are given as the source filed them. No stated cut-off is given here; in the data, active = GI50 up to about 1.1 µM and inactive = higher.
Outcome field: choose from YES (active), NO (inactive)

Answered cases to consult:
C=CC1ON(Cc2ccccc2)CCc2cc(OC)c(OC)cc21 (configuration not stated): NO
CC(=O)O[C@H]1C(=O)[C@@]2(C)[C@H]([C@H](OC(=O)c3ccc(F)cc3)[C@]3(O)C[C@H](OC(=O)[C@H](O)[C@@H](NC(=O)c4ccccc4)c4ccccc4)C(C)=C1C3(C)C)[C@]1(OC(C)=O)CO[C@@H]1C[C@@H]2O: YES
N#C[BH2-][n+]1cn(C2CC(OP(=O)(O)OCC3OC(n4cnc5c(=O)[nH]c(N)nc54)CC3O)C(CO)O2)c2nc(N)[nH]c(=O)c21 (configuration not stated): NO
CN1CCCCC(C#N)(c2ccccc2)CC1 (configuration not stated): NO
[O-][S+](CCc1ccccc1)Nc1ccccc1 (configuration not stated): NO

stdin: Hi, sorry to bother you, what did the test record for C[C@@H]1CC[C@@]2(C)[C@H](C)/C(=C\COC(=O)/C=C/c3ccc(O)c(O)c3)CC[C@@]12C [NAVICULYL CAFFEATE] ?
stdout: NO

stdin: Hi, sorry to bother you, what did the test record for `O=C(CN(c1ccc(S(=O)(=O)O)cc1)c1ccc(S(=O)(=O)O)cc1)Nn1cnc2ccc(S(=O)(=O)N(c3ccc(S(=O)(=O)O)cc3)c3ccc(S(=O)(=O)O)cc3)cc2c1=O` ?
stdout: NO

----------
system: NCI-H460; assay: NCI tumour cell line growth inhibition, 48 h
Activity calls are given as the source filed them. Rule as the data show it: active = GI50 up to about 1.1 µM and inactive = higher.
Outcome field: choose from active, inactive

Answered cases to consult:
COc1ccc(OC2(c3cc(OC)ccc3OC)OC(=O)c3ccccc32)cc1 (stereo unspecified): inactive
COc1cc2c(cc1O)CCN[C@@]21CS[C@H]2c3c(OC(C)=O)c(C)c4c(c3C(COC1=O)N1C2C2NC(Cc3cc(C)c(OC)c(O)c32)[C@@H]1O)OCO4 (stereo partly specified): active
C/C(CC(=O)Nc1ccc(Cl)c(Cl)c1)=N/NC(=O)C[N+](C)(C)C: inactive
COc1ccc2nc(-c3ccccn3)cc(O)c2c1: inactive
C=CCCC1(CCP(=O)(c2ccccc2)c2ccccc2)OCCO1: inactive
N/N=c1\c2ccccc2c2cc3c(cc12)/c(=N/N)c1ccccc13: inactive

stdin: Hi, sorry to bother you, what did the test record for `CC(=O)C(C(C)=O)[C@@H]1OC(C)(C)O[C@@H]1[C@H]1COC(C)(C)O1` ?
stdout: inactive

stdin: Hi, sorry to bother you, what did the test record for CC12CC(c3ccccc3O1)C(C(=O)Nc1ccc(Cl)cc1Cl)C(=O)N2 (stereo unspecified) ?
stdout: inactive

stdin: Hi, sorry to bother you, what did the test record for `Cc1noc2cccc(OCc3ccccc3)c12` ?
stdout: inactive

stdin: Hi, sorry to bother you, what did the test record for `CN(C)CCC(/C=C/c1ccccc1)=N\Nc1ccc(Cl)cc1` ?
stdout: inactive

stdin: Hi, sorry to bother you, what did the test record for `O=C(O)C1=C(C(=O)Nc2ccc(NC(=O)C3=C(C(=O)O)C4C=CC3C4)cc2)C2C=CC1C2` ?
stdout: inactive

stdin: Hi, sorry to bother you, what did the test record for `CCCCCCCCCc1nn2c(Cc3ccccc3)nnc2s1` ?
stdout: inactive

stdin: Hi, sorry to bother you, what did the test record for COc1ccc(C(=O)CC(c2ccccc2)[C@H]2C(c3ccc(OC)cc3)=Nc3c(nc(SC)n(C)c3=O)NC2c2ccccc2)cc1 (stereo partly specified) ?
stdout: inactive

stdin: Hi, sorry to bother you, what did the test record for N#C[BH2-][n+]1cn(C2CC(OP(=O)(O)OCC3OC(n4cnc5c(=O)[nH]c(N)nc54)CC3O)C(CO)O2)c2nc(N)[nH]c(=O)c21 (stereo unspecified) ?
stdout: inactive

stdin: Hi, sorry to bother you, what did the test record for `CCOC(=O)/C(=C\c1ccc(N(CCC#N)CCC#N)cc1)NC(=O)c1cc([N+](=O)[O-])ccc1Cl` ?
stdout: inactive

stdin: Hi, sorry to bother you, what did the test record for `COc1ccc(-c2nnc(CCCCCCCCc3nnc(-c4ccc(OC)cc4)o3)o2)cc1` ?
stdout: inactive

----------
system: OVCAR-4; assay: NCI tumour cell line growth inhibition, 48 h
Calls of active or inactive are those of the source. Cut-off read from the data, not from the text of the source: active = GI50 up to about 1.1 µM and inactive = higher.
Readout Name: GI50

In the examples that follow, each entry is paired with its recorded GI50.
COc1ccc(/C=C/C(=O)NCC(NC(=O)/C=C/c2ccc(OC)c(OC)c2)C(=O)O)cc1OC (stereo not given): > 100 µM (inactive)
CC(=O)c1cc(S(=O)(=O)c2ccc(O)c(C(C)=O)c2)ccc1O: > 100 µM (inactive)
COc1cccc(NCC(=O)Nn2c(-c3ccccc3)nc3ccccc3c2=O)c1: > 100 µM (inactive)
Cc1cc(=O)cc2sc3cc(Cl)ccc3nc1-2: 22.2 µM (inactive)

Attention now shifts to the item below.
stdin: Could you tell me which GI50 is on file for `CCOc1cc2c(cc1O)/C(=N/NS(=O)(=O)c1ccc(C)cc1)C[C@@H]1[C@@H]2CC[C@]2(C)[C@@H](O)CC[C@@H]12` ?
stdout: 4.78 µM (inactive)

----------
system: NCI-H226; test: NCI tumour cell line growth inhibition, 48 h
Active and inactive are the calls of the source. Rule as the data show it: active = GI50 up to about 1.1 µM and inactive = higher.
Outcome field: choose from class 1 = active, class 0 = inactive

Answered cases to consult:
CSc1nc(SC)c2c(C(N)=S)n[nH]c2n1: class 0
CC(C)n1c2c([n+](C)c1/C=C/c1ccccc1)C(=O)c1ccccc1C2=O: class 1
COc1cccc(N(CN2C(=O)CCC2OC)C(C)=O)c1 (stereo unspecified): class 0
COc1cc(CCNC2=CC(=O)c3nc[nH]c3C2=O)ccc1O: class 0
O=c1c2ccccc2nc(-c2ccccc2)n1NC(=S)Nc1ccc(Cl)cc1: class 0
COc1cc2c(c(OC)c1OC)C(=O)NCCC2: class 0

stdin: Hi, sorry to bother you, what did the test record for `CC1(C)OC[C@H](COCOP2(=O)Oc3ccc4ccccc4c3-c3c(ccc4ccccc34)O2)O1` ?
stdout: class 0

stdin: Hi, sorry to bother you, what did the test record for `N[C@@H]1CCN(c2c(F)cc3c(=O)c(C(=O)O)cn4c3c2Oc2cc3c(ccc5ccccc53)cc2-4)C1` ?
stdout: class 0

stdin: Hi, sorry to bother you, what did the test record for C=CC1ON(Cc2ccccc2)CCc2cc(OC)c(OC)cc21 (stereo unspecified) ?
stdout: class 0

stdin: Hi, sorry to bother you, what did the test record for O=C1CC(NC(=O)C(F)(F)F)c2c(Br)sc(N3CCC(c4ccccc4)CC3)c21 (stereo unspecified) ?
stdout: class 0

stdin: Hi, sorry to bother you, what did the test record for `C=CCOC(=O)Cn1ccc(=O)[nH]c1=O` ?
stdout: class 0

stdin: Hi, sorry to bother you, what did the test record for `Clc1ccc(-c2ccc(-c3nnc(COc4ccc(OCc5nnc(-c6ccc(-c7ccc(Cl)cc7Cl)o6)o5)c(Cl)c4)o3)o2)c(Cl)c1` ?
stdout: class 0

stdin: Hi, sorry to bother you, what did the test record for Cc1cccc(CC(Cc2ccc(C)cc2C(=O)O)C(=O)O)c1 (stereo unspecified) ?
stdout: class 0

stdin: Hi, sorry to bother you, what did the test record for `Cc1ccc(S(=O)(=O)SC(C)(C)C)cc1` ?
stdout: class 0

stdin: Hi, sorry to bother you, what did the test record for CC(CCOc1ccc2ccc(=O)oc2c1)C1=CC(=O)C(C)(C)O1 (stereo unspecified) ?
stdout: class 0

stdin: Hi, sorry to bother you, what did the test record for `CC1(C)CCC[C@]2(C)[C@@H]1CC[C@@]13O[C@@H]1C1=C(CO)C(=O)O[C@]14O[C@@H]4[C@@H]23` ?
stdout: class 0

stdin: Hi, sorry to bother you, what did the test record for `O=c1[nH]c2cc([N+](=O)[O-])c(N/N=C/c3ccc(Cl)cc3Cl)c([N+](=O)[O-])c2[nH]1` ?
stdout: class 0
